Values were extracted from PubChem BioAssay.

TEST_METHOD_NOTES: binders of probe aHhip on microarray, primary screen, stem cell growth factor project, biochemical, small-molecule microarray, fluorescence 635/667 (AID 1087);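 also: score merges spot fluorescence at 667nm with spot signal to noise ratio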
CONDITION_NOTES: higher = more signal
MEASUREMENT_LABEL: composite z-score

[[record]]
compound = "C=CCOC(=O)[C@H]1[C@@H]2C(=O)O[C@@H](c3ccccc3)[C@@H](c3ccccc3)N2[C@@H](c2ccc(OCCOC(=O)[C@@H]3C[C@@H]4C(=O)N5CCC[C@H]5C(=O)N4[C@@H]3c3ccc(O)cc3)cc2)[C@]12C(=O)Nc1ccc(I)cc12"
measurement_label = "composite z-score"
value_measured = -0.367

[[record]]
compound = "CCCCN1CC=CC23O[C@@H]4/C=C\\CCC(C)OC(=O)C4[C@H]2C(=O)N(C(CO)C(C)C)[C@@H]3C1=O (stereo not given in full)"
measurement_label = "composite z-score"
value_measured = -0.201

[[record]]
compound = "O=C1OCC=C[C@H]2OC34C=CCN(Cc5ccccc5)C(=O)[C@H]3N(CCCCCCO)C(=O)[C@@H]4[C@@H]12 (stereo not given in full)"
measurement_label = "composite z-score"
value_measured = -0.249

[[record]]
compound = "COC(=O)c1nc2oc1CC[C@@H](CO)NC(=O)N(C)Cc1cnnn1C[C@H](Cc1ccccc1)NC2=O"
measurement_label = "composite z-score"
value_measured = -0.314

[[record]]
compound = "C=CCOC(=O)[C@H]1[C@@H]2C(=O)O[C@@H](c3ccccc3)[C@@H](c3ccccc3)N2[C@@H](c2ccc(OCCOC(=O)[C@@H]3C[C@@H]4C(=O)N[C@@H](CCCCN(C)C)C(=O)N4[C@@H]3c3ccc(O)cc3)cc2)[C@]12C(=O)Nc1ccccc12"
measurement_label = "composite z-score"
value_measured = 0.0623

